Some variants, each annotated with its measured aptazyme ON/OFF ratio.
B1: Pistol ribozyme (parent)
chain: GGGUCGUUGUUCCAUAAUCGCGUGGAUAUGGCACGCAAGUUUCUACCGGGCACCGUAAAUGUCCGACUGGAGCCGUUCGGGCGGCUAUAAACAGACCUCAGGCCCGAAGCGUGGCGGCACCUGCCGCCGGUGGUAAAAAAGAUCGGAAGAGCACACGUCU

variants of: B1; test: aptazyme ON/OFF ratio, guanine; higher = stronger switching; co-transcriptional cleavage with and without guanine
reported property: aptazyme ON/OFF ratio

mutation code | reported property | observed result
U7A U8C G9A C12G C13G | aptazyme ON/OFF ratio | 1.12
U7A U8G G9A U10G U11C C13A | aptazyme ON/OFF ratio | 1.12
U8C G9C U10A C12A C13A | aptazyme ON/OFF ratio | 1.09
U7C U8A G9C U10G U11C C12U C13G | aptazyme ON/OFF ratio | 1.27
U7G U8C G9U C12A C13G | aptazyme ON/OFF ratio | 1.26
U7C U8G G9U U10G C12A C13U | aptazyme ON/OFF ratio | 1.15
U7A U8A U10G | aptazyme ON/OFF ratio | 1.52
U8C U10G C12A C13G | aptazyme ON/OFF ratio | 1.11
U7G G9C U10G U11G C12U C13U | aptazyme ON/OFF ratio | 1.24
U7A G9C U11A C12A C13U | aptazyme ON/OFF ratio | 1.11
U7C G9A U10C C12U C13U | aptazyme ON/OFF ratio | 1.14
U7G G9C U10G U11G C12U C13G | aptazyme ON/OFF ratio | 1.1
U8C G9A U10C U11G C12U | aptazyme ON/OFF ratio | 1.29
U7G G9A U10C C12U C13G | aptazyme ON/OFF ratio | 1.15
U8G G9U U10A U11G C12A | aptazyme ON/OFF ratio | 1.12
G9A C13A | aptazyme ON/OFF ratio | 1.45
U7A U8G G9C U10G C12A C13G | aptazyme ON/OFF ratio | 1.1
U7C U8G G9A U10A C12A | aptazyme ON/OFF ratio | 1.26
U7G U8G G9C U10G C13G | aptazyme ON/OFF ratio | 1.28
U7G U8C G9A | aptazyme ON/OFF ratio | 4.1
U7C U8C U11C C13A | aptazyme ON/OFF ratio | 1.24
U7G U8G U10A C12G C13G | aptazyme ON/OFF ratio | 1.2
G9A U10G U11C C12G C13U | aptazyme ON/OFF ratio | 1.24
U7G U8C G9U U10C U11G C12U C13G | aptazyme ON/OFF ratio | 1.21
U7G U8A G9C U10G U11A C12U C13A | aptazyme ON/OFF ratio | 1.03
U7G U8A G9U U10C U11G C12A C13A | aptazyme ON/OFF ratio | 1.08
U7A U8A G9U U10C U11A C12U C13U | aptazyme ON/OFF ratio | 1.22
U7G U8G G9U U10G U11C C13A | aptazyme ON/OFF ratio | 1.18
U8G G9A U10C C12G C13G | aptazyme ON/OFF ratio | 1.2
U7C U8C G9C U11G C12U C13G | aptazyme ON/OFF ratio | 1.07
U8G G9C U10G C13G | aptazyme ON/OFF ratio | 1.12
U7C G9C U10A U11C C12A | aptazyme ON/OFF ratio | 1.07
U7C G9U U10A U11G C12A C13G | aptazyme ON/OFF ratio | 1.1
U7G U10C C12A C13A | aptazyme ON/OFF ratio | 1.1
U7A U8A G9C U10A C12A | aptazyme ON/OFF ratio | 1.2
U7G U8C G9A C12G | aptazyme ON/OFF ratio | 1.07
U8A G9A U10C C12A C13U | aptazyme ON/OFF ratio | 1.18
U7A U8C G9C U11A C13A | aptazyme ON/OFF ratio | 1.05
U8G G9U U11A C12A C13G | aptazyme ON/OFF ratio | 1.22
U7C U8A G9C U10G U11C C12G C13U | aptazyme ON/OFF ratio | 1.19
U7C U8G G9C U10A U11G C13A | aptazyme ON/OFF ratio | 1.19
G9A U10A U11G C13G | aptazyme ON/OFF ratio | 1.11
U7C U8G G9C U10A U11A C12U C13A | aptazyme ON/OFF ratio | 1.21
U7C G9U U10G U11C C12G C13G | aptazyme ON/OFF ratio | 1.11
U8G G9U U10C U11G C12A C13U | aptazyme ON/OFF ratio | 1.12
U7C U8A G9A U10A U11A C12U C13U | aptazyme ON/OFF ratio | 1.13
